biological target: Thymidine phosphorylase (Escherichia coli K-12) (UniProt P07650); assay: Inhibition of Escherichia coli thymidine phosphorylase assessed as ratio of phosphorolysis in presence of drug to control at 10 umol/l
Sequence (P07650 whole entry, looked up): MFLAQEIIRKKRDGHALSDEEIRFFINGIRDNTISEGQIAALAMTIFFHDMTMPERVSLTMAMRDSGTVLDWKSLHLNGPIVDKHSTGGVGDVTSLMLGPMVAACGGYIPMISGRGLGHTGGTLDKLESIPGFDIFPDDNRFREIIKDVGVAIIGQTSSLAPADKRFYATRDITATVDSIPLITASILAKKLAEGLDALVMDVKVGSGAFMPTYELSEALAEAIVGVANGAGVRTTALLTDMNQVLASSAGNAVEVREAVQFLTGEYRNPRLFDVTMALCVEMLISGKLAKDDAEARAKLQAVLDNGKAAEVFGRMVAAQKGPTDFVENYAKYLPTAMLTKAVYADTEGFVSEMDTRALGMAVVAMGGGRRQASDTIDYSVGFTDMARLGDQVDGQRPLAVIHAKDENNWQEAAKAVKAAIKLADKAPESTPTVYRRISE
outcome-measure: Ratio

Identify measured Ratio associated with Cc1c[nH]c(=O)n(C[C@@H](CF)OCP(=O)(O)O)c1=O 0.93

Annotate the compound Cc1c[nH]c(=O)n(C[C@H](CF)OCP(=O)(O)O)c1=O with its measured Ratio. 0.98

Respond only with Ratio recorded for Cc1c[nH]c(=O)n(C[C@H](CO)OCP(=O)(O)O)c1=O 1.01

Please report Ratio for the following compound: Cc1c[nH]c(=O)n(CCOCP(=O)(O)O)c1=O 1.07

Please report Ratio for the following compound: Cc1c[nH]c(=O)n(C[C@@H](CO)OCP(=O)(O)O)c1=O 0.94
